Reported IC50 values for a set of compounds
# assay_system: recombinant human EGFR exon 19 deletion/C797S double mutant protein (Homo sapiens (Human), UniProt P00533, C797S/DEL746-750)
# Sequence (P00533 other isoform, or with tags, fused parts or gaps C797S/del 1-668/del 746-750 limits assumed): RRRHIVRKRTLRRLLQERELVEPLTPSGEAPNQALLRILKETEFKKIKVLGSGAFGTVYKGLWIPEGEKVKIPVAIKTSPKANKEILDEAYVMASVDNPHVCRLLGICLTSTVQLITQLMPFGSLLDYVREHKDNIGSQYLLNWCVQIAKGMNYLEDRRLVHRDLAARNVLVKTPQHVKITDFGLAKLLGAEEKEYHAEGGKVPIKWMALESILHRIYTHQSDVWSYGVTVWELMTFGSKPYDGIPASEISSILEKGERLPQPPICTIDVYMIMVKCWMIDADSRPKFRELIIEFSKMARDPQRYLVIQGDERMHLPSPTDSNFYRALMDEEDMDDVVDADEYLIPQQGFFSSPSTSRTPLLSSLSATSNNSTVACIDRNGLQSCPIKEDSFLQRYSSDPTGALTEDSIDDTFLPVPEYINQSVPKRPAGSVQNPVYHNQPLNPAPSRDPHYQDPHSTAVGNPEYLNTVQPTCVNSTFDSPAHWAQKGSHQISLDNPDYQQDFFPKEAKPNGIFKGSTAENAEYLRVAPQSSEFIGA
# assay_explanation: Biological Activity Assay C: biochemical assay against EGFR exon 19 deletion/C797S protein (EGFR d19/CS)
Report only the number, with the unit nM understood.

Please review the entries below; each comes with its answer.
compound: CC(=O)N1CC[C@@H](n2cc(-c3ncnc4oc(-c5ccccc5)cc34)c(-c3ccc(F)cc3)n2)C1 (single isomer, unassigned)
IC50 / nM: 0.41
--
compound: O=S1(=O)CC(n2cc(-c3ncnc4oc(-c5ccccn5)cc34)c(-c3ccc(F)cc3)n2)C1
IC50 / nM: 0.11
--
compound: Cc1nc(-c2cc3c(-c4cn(C5CS(=O)(=O)C5)nc4-c4ccc(F)cc4)ncnc3o2)cs1
IC50 / nM: 0.16
--
compound: Fc1ccc(-c2nn([C@@H]3C[C@H]4CC[C@@H](C3)O4)cc2-c2ncnc3oc(-c4ccccc4)cc23)cc1
IC50 / nM: 0.63
--
compound: CC(=O)N1C=C(c2cc3c(-c4cn(CC(C)(C)O)nc4-c4ccc(F)cc4)ncnc3o2)CCC1
IC50 / nM: 0.35

Query (compound): `O=S1(=O)CCC(Cn2cc(-c3ncnc4oc(-c5ccccc5)cc34)c(-c3ccc(F)cc3)n2)CC1` ; field requested: IC50 1.69

# lookup: IC50 of `N#CCn1cc(-c2ncnc3oc(-c4ccccc4)nc23)c(-c2ccc(F)cc2)n1` 7.72

----------
# assay_system: recombinant human EGFR exon 19 deletion/C797S double mutant protein (Homo sapiens (Human), UniProt P00533, C797S/DEL746-750)
# assay_explanation: Biological Activity Assay C: biochemical assay against EGFR exon 19 deletion/C797S protein (EGFR d19/CS)
List of pIC50 values.
Note: pIC50 values are expressed as the negative base-10 logarithm of concentration in M.

Below: 2 compounds and their reported pIC50.
compound: CC(=O)N1CCC=C(c2cc3c(-c4cn(C5CS(=O)(=O)C5)nc4-c4ccc(F)cc4)ncnc3o2)C1
pIC50: 9.36

compound: CC(C)(C(N)=O)n1cc(-c2ncnc3oc(-c4ccccc4)cc23)c(-c2ccc(F)cc2)n1
pIC50: 8.79

Look up pIC50 for this compound: `Fc1ccc(-c2nn(C3COC3)nc2-c2ncnc3oc(-c4ccccc4)cc23)cc1` 8.95

Recorded pIC50 for `Oc1ncccc1-c1cc2c(-c3cn([C@H]4C[C@@H](F)C4)nc3-c3ccc(F)cc3)ncnc2o1` , please? 9.67

Could you tell me which pIC50 is on file for `C[C@@H]1C[C@@H](n2cc(-c3ncnc4oc(-c5ccccc5)cc34)c(-c3ccc(F)cc3)n2)CN1S(C)(=O)=O` ? 9.59

pIC50 for `OCCn1nc(-c2ccc(F)cc2)c(-c2ncnc3[nH]c(-c4ccccc4)nc23)n1` ? 8.51

If you can, please state the reported pIC50 value of `O[C@H]1C[C@H](Cn2ncc(-c3ncnc4oc(-c5ccccc5)cc34)c2-c2ccc(F)cc2)C1` . 7.70

----------
# assay_system: recombinant human EGFR L858R/C797S double mutant protein (Homo sapiens (Human), UniProt P00533, C797S/L858R)
# Sequence (P00533 25-1210 C797S/L858R): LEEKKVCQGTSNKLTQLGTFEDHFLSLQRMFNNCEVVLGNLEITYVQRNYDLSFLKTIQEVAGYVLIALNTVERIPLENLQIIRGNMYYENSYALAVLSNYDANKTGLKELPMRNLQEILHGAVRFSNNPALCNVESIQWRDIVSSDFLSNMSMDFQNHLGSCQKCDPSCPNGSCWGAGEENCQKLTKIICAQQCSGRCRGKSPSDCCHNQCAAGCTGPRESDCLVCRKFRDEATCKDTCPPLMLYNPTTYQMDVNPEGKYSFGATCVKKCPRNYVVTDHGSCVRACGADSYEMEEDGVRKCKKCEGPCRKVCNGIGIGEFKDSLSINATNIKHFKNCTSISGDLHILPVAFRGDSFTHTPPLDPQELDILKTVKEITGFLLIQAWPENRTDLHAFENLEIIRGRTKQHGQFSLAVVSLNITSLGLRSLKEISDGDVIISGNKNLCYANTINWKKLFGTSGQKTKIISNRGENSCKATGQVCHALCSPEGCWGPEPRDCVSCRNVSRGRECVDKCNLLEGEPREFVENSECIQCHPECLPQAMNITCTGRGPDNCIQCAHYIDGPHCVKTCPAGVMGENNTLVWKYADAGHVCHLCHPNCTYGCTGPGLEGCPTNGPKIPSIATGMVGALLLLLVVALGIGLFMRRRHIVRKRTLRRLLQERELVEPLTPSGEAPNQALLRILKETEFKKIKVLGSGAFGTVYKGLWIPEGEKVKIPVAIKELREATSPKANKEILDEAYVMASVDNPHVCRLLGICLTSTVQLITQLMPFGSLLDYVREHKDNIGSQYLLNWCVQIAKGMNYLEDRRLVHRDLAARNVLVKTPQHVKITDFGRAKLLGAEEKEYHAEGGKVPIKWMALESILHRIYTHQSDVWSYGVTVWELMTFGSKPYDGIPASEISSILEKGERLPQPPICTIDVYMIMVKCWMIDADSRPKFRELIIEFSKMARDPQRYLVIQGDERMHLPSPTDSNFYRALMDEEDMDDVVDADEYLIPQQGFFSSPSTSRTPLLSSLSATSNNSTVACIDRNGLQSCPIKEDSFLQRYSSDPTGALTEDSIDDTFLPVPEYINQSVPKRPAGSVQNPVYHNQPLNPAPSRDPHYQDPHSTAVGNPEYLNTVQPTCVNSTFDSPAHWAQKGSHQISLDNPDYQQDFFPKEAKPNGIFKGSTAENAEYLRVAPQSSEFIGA
# assay_explanation: Biological Activity Assay B: biochemical assay against EGFR L858R/C797S protein (EGFR LR/CS)
So basically, if IC50 comes in under 1 nM it's Yes, and if it's 1 nM or more it's No.

Reference set, count: 5
compound: OCCCc1nc(-c2ccc(F)cc2)c(-c2ncnc3oc(-c4ccccc4)cc23)o1 [Example 35]
group: Yes
//
compound: O=S1(=O)CC(CCn2cc(-c3ncnc4oc(-c5ccccc5)cc34)c(-c3ccc(F)cc3)n2)C1 [Example 52]
group: Yes
//
compound: Fc1ccc(-c2nn([C@@H]3CCOC3)cc2-c2ncnc3oc(-c4ccccc4)cc23)cc1 (single isomer, unassigned) [Example 90]
group: Yes
//
compound: O=S1(=O)CCC(Cn2cc(-c3ncnc4oc(-c5ccccc5)cc34)c(-c3ccc(F)cc3)n2)CC1 [Example 105]
group: Yes
//
compound: CS(=O)(=O)CCCn1cc(-c2ncnc3oc(-c4ccccc4)cc23)c(-c2ccc(F)cc2)n1 [Example 55]
group: Yes

Determine if Fc1ccc(-c2nn(CC3CCO3)cc2-c2ncnc3oc(-c4ccccc4)cc23)cc1 (stereo not shown) [Example 69] shows IC50 strictly lower than 1 nM. Yes

Does the reported IC50 of the following compound sit strictly below 1 nM? OCCCn1cc(-c2ncnc3[nH]c(-c4ccccc4)nc23)c(-c2ccc(F)cc2)n1 [Example 6] Yes

Hello, I'm reviewing records and need to know if IC50 of CC(C)(O)CCn1nc(-c2ccc(F)cc2)c(-c2ncnc3oc(-c4ccccc4)cc23)n1 [Example 82] is below 1 nM. Could you check? No
